read-out: Alkaline Phosphatase, Placental (ALPP) gene, ALPP (gene 250); assay: LTEA_HepaRG_ALPP: Life Technologies and Expression Analysis (LTEA) Assay for Alkaline Phosphatase, Placental (ALPP) gene using HepaRG (AID 2283468); details: mRNA level, 48 h; actives raise or lower the signal
Activity calls are given as the source filed them. Rule for the calls: active = hit-call score of the fitted dose curve at least 0.9, where 1 is the maximum; inactive = score below 0.9.
Assign a class; possible classes are active, inactive

# count of solved cases: 2
Look up the recorded call for CSC(C)(C)C=NO in this test.
inactive

# lookup: test call for ClC(Cl)c1ccccc1
inactive

Others:
Which outcome did this test record for the compound O=[N+]([O-])c1ccc(Cl)c(Cl)c1 ?
inactive

How did this test come out for COCCOCCO ?
inactive

Outcome logged for [N-]=[N+]=[N-] in this assay:
inactive

----------
Assay: ATG_EGR_CIS: Attagene CIS-FACTORIAL HepG2 Assay for human Early Growth Response 1 (EGR1) (AID 2282938)
Conditions: HepG2 Attagene CIS-FACTORIAL EGR reporter mRNA; actives raise or lower the signal
Experimental: ATG_CIS is a cell-based, multiplexed-readout assay that uses HepG2, a human liver cell line, with measurements taken at 24 hours after chemical dosing in a 24-well plate.ATG_EGR_CIS is one of 52 assay component(s) measured or calculated from the ATG_CIS assay. […] This assay endpoint, ATG_EGR_CIS, was analyzed with bidirectional fitting relative to DMSO as the negative control and baseline of activity. […]
Active and inactive are the calls of the source. The calls were made as follows: active = hit-call score of the fitted dose curve at least 0.9, where 1 is the maximum; inactive = score below 0.9.
# valid calls are 1.0 = active, 0.0 = inactive; nothing else

See these solved cases before continuing.
Hi team, can someone confirm the assay call for Cc1ccc(O)cc1C ?
0.0

Hi, do you know how CCC(C)(C)c1ccc(O)cc1 came out in this test?
0.0

What was the test verdict on CCCCc1ccccc1 ?
0.0

---
Returns: the outcome recorded for CCCCN(CC)C(=O)SCCC in this assay.
0.0

Short answer needed: outcome of this test for CCCCN(CCCC)SN(C)C(=O)Oc1cccc2c1OC(C)(C)C2 ?
0.0

GET /call?item= CC(=O)CCc1ccc2c(c1)OCO2 returns the recorded outcome of this test.
0.0

Identify the outcome logged in this assay for the compound shown: C=C(C)C(=O)OCC1CO1 (centres undefined)
0.0

Fill in: this test's call for Cc1cc(C)c(C(=O)P(=O)(c2ccccc2)c2ccccc2)c(C)c1 is ___
1.0

Hi, sorry to bother you, what did the test record for CCCCC(CC)COC(=O)c1c(Br)c(Br)c(Br)c(Br)c1C(=O)OCC(CC)CCCC (centres undefined) ?
0.0

Check the results log: what was the call for CC(Cl)(Cl)C(=O)O ?
0.0

I would be grateful if you could indicate the recorded call for CCCCC(CC)COP(=O)(Oc1ccccc1)Oc1ccccc1 (centres undefined) .
1.0

For CCC1(c2ccccc2)C(=O)N=C(O)NC1=O (centres undefined) , which call appears in the assay record?
0.0

Each compound tested received a call. Report the one for Cc1cccc(N)c1 .
0.0

Hi, sorry to bother you, what did the test record for CCOP(=S)(OCC)SCn1nnc2ccccc2c1=O ?
1.0

----------
assay: CCTE_Shafer_MEA_dev_firing_rate_mean: CCTE's Neural Network Formation Assay for Mean Firing Rate, Shafer Lab (AID 2284031);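 note: AUC of well mean spike rate recorded on DIV 5 7 9 and 12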
Activity calls are given as the source filed them. How the source made its calls: active means hit-call score of the fitted dose curve at least 0.9, where 1 is the maximum; inactive means score below 0.9.
Result category, one only: 1 (active), -1 (inactive)

Example entries begin here.
What is the recorded call for this molecule in the test? CO/N=C(/C(=O)OC)c1ccccc1COc1ccccc1C
1

# lookup: test call for O=C(O)C(F)(OC(F)(F)C(F)(F)C(F)(F)F)C(F)(F)F (centres undefined)
-1

State the result this test recorded for CCOP(=S)(OCC)SCSCC .
-1

Please find the next molecule below.
# fetch the recorded call for c1cc2c3c(cccc3c1)CC2 here
-1
